Test system: Saccharomyces cerevisiae
TEST: protein stability index of tFT-peptide fusion (C-terminal peptide) (PSI (0-1 scale)); higher = more stable (slower turnover)
CONDITIONS USED: genetic background: cdc34-1; temperature: 37 C

PRIMARY SEQUENCE	protein stability index
VWWTLWRVHMLG	0.583
VGCMVVIWVLWG	0.153
FRHFPLLLSFVR	0.428
LRVLSVVRLSVW	0.479

====

Reported protein stability index values for the following sequences.
System: Saccharomyces cerevisiae
TEST: protein stability index of tFT-peptide fusion (C-terminal peptide) (PSI (0-1 scale)); higher = more stable (slower turnover)
CONDITIONS USED: genetic background: das1 deletion; temperature: 30 C

PRIMARY SEQUENCE	TEST TARGET	protein stability index
NCEPIATTFRAN [MGL2 C-terminal 12 aa]	Saccharomyces cerevisiae	0.709
EDVQLALNKHMN [YAP1 C-terminal 12 aa]	Saccharomyces cerevisiae	0.685
TIDFFDPVKLKR [YEL025C C-terminal 12 aa]	Saccharomyces cerevisiae	0.724
EANFWTAALEYE [THI21 C-terminal 12 aa]	Saccharomyces cerevisiae	0.733
ENVDSPRKSNQL [SLM2 C-terminal 12 aa]	Saccharomyces cerevisiae	0.69
RINQDIKKVKLL [EMP46 C-terminal 12 aa]	Saccharomyces cerevisiae	0.696
LIQFLEPSKRVA [YPT35 C-terminal 12 aa]	Saccharomyces cerevisiae	0.72
GNAEFAASLLFQ [DDI1 C-terminal 12 aa]	Saccharomyces cerevisiae	0.72
SRSGPDSTNIKL [MPP10 C-terminal 12 aa]	Saccharomyces cerevisiae	0.688
IIDELEQIALQQ [BRE2 C-terminal 12 aa]	Saccharomyces cerevisiae	0.697
SYEIFEGSKKVM [CET1 C-terminal 12 aa]	Saccharomyces cerevisiae	0.699
ATPQKRTGPARG [YER088C-A C-terminal 12 aa]	Saccharomyces cerevisiae	0.68
YAVSELEGPMLD [CSC1 C-terminal 12 aa]	Saccharomyces cerevisiae	0.7
